The reported numbers originate from paper PMC3914206.

experimental system: panel of 442 kinases (Homo sapiens, UniProt P35590)
Construct: purchased KINOMEscan
Sequence (P35590 22-1138): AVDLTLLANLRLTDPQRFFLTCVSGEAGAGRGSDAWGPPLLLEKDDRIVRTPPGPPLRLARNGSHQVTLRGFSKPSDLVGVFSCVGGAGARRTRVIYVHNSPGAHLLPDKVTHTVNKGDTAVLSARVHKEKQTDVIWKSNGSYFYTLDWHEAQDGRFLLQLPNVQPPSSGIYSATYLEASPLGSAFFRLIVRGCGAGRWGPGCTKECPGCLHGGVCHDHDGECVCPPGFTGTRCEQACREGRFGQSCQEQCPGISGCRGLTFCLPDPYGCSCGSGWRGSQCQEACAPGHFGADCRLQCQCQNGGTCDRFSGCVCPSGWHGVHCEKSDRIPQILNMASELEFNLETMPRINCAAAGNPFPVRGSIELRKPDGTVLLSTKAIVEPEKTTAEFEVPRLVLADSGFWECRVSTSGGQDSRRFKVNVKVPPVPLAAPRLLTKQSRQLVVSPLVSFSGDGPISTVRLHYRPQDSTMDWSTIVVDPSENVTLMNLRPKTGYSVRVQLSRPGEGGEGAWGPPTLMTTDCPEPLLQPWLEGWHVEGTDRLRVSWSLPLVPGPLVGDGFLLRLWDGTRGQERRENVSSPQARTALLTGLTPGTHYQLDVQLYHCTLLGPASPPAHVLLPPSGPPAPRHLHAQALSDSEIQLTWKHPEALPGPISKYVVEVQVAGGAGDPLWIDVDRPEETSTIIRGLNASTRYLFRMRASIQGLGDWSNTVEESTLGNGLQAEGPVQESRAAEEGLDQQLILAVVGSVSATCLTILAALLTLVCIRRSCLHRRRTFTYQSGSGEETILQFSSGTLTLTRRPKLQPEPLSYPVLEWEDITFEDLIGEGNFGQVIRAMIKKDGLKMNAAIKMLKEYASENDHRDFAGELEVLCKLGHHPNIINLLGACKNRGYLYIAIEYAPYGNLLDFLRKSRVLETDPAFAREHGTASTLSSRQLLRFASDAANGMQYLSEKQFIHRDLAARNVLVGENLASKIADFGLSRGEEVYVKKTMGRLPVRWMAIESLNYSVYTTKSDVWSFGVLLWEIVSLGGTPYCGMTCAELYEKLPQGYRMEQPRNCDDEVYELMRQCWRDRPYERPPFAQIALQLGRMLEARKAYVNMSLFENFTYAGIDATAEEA
Type: binding
measurement parameters: kinase TIE1; compound concentration 10 µM
readout kind: % Ctrl, TIE1
Number first, unit second: that is the form wanted.

Before answering, review these 3 worked examples.
| molecule | % Ctrl, TIE1 |
| --- | --- |
| COc1cc(C(=O)N2CCC(N3CCN(C)CC3)CC2)ccc1Nc1ncc2c(n1)N(C)c1ccccc1C(=O)N2C [15 (LRRK2-IN-1)] | 100 % Ctrl |
| CCOc1cc(C(=O)N2CCC(N3CCN(C)CC3)CC2)ccc1Nc1ncc2c(n1)N(C1CCCC1)c1ccccc1C(=O)N2C [Compound 26] | 100 % Ctrl |
| COc1cc(C(=O)N2CCC(N3CCN(C)CC3)CC2)ccc1Nc1ncc2c(n1)N(C1CCCC1)c1ccccc1C(=O)N2C [Compound 25] | 100 % Ctrl |

*Q* Give its % Ctrl, TIE1 value. Item: COc1cc(C(=O)N2CCC(N3CCN(C)CC3)CC2)ccc1Nc1ncc2c(n1)N1CCc3cccc(c31)C(=O)N2C [Compound 24]
*A* 70 % Ctrl
